# protocol: Blood levels of test compounds in ZDF fa/fa rats
# Format: in vivo, rat
# condition set: male, rat, whole blood, oral; ZDF fa/fa rats; 30 mg/kg per os twice; time 30 min
attribute measured: concentration at 30 min (ng/mL)

Below are worked cases with known answers.
>  <structure as smiles>
CC(=O)Nc1cc(Nc2nccc(-c3sc(=O)n(C)c3C)n2)cc(C(F)(F)F)c1

>  <concentration at 30 min / ng/mL>
248

$$$$
>  <structure as smiles>
Cc1c(-c2ccnc(Nc3cc(Br)cc(C(F)(F)F)c3)n2)sc(=O)n1C

>  <concentration at 30 min / ng/mL>
115

$$$$
>  <structure as smiles>
COCCNS(=O)(=O)c1cccc(Nc2nccc(-c3sc(=O)n(C)c3C)n2)c1

>  <concentration at 30 min / ng/mL>
350

$$$$

A = CCNS(=O)(=O)c1cccc(Nc2nccc(-c3sc(=O)n(C)c3C)n2)c1
B = Cc1c(-c2ccnc(Nc3ccc(Cl)c(C(F)(F)F)c3)n2)sc(=O)n1C
Which value of concentration at 30 min is numerically greater: that of A or that of B ? Pick one and reply with its label.
B

The reported measurements were obtained from patent US7902361B2.
